Compiled record: pKi values for Tyrosine-protein phosphatase non-receptor type 2 (Homo sapiens, UniProt P17706) across several sources.
pKi: −log10 of the molar value.
ENDPOINT_NAME: pKi

Some compounds with known pKi results, for comparison:
* CCc1cc(CC(NC(C)=O)C(=O)NCCCCC(=O)N[C@@H](CCSC)C(=O)OC)ccc1N(C(=O)C(=O)O)c1ccccc1C(=O)O (stereo partly specified) | 6.17
* O=C(O)C(=O)Nc1ccc(CC(c2nc3ccccc3o2)S(=O)(=O)Nc2ccc(C(F)(F)F)cc2)cc1 (stereo unspecified) | 5.10

A: CCc1cc(CC(NC(C)=O)C(=O)NCCCCC(=O)O)ccc1N(C(=O)C(=O)O)c1ccccc1C(=O)O (stereo unspecified)
B: CCCC(=O)Nc1cccc(-c2cc(C(=O)O)no2)c1
Query :: Hi, I'm comparing two records. Which one has the lower pKi, A or B ? To answer, give the label that identifies your chosen option.
Result :: B

a: CCc1cc(CC(NC(C)=O)C(=O)NCc2ccc(Cl)cc2)ccc1N(C(=O)C(=O)O)c1ccccc1C(=O)O (stereo unspecified)
b: O=C(O)C(=O)Nc1cc2[nH]ccc2cc1C(=O)O
c: CCc1cc(CC(NC(C)=O)C(=O)NCCCCC(=O)NC(Cc2ccccc2)C(N)=O)ccc1N(C(=O)C(=O)O)c1ccccc1C(=O)O (stereo unspecified)
d: CCc1cc(CC(NC(C)=O)C(=O)NCCCCC(=O)N[C@H](C(=O)O)C2CCCCC2)ccc1N(C(=O)C(=O)O)c1ccccc1C(=O)O (stereo partly specified)
e: CCc1cc(CC(NC(C)=O)C(=O)NCCCCC(=O)N[C@@H](Cc2ccccc2)C(=O)O)ccc1N(C(=O)C(=O)O)c1ccccc1C(=O)O (stereo partly specified)
Query :: Please give the order of these compounds when sorted by pKi, largest value leading. To answer, write out the labels according to the requested order.
Result :: e, d, c, a, b
(e: 6.80, d: 6.54, c: 6.15, a: 5.82, b: 4.85)

a: COC(=O)c1c(O)cccc1OCCCCNC(=O)[C@H](Cc1ccc(N(CC(C)C(=O)O)C(=O)C(=O)O)cc1)NC(=O)OC(C)(C)C (stereo partly specified)
b: CCCCCNC(=O)C(Cc1ccc(N(C(=O)C(=O)O)c2ccccc2C(=O)O)c(CC)c1)NC(C)=O (stereo unspecified)
c: O=C(O)C(=O)Nc1sc2c(c1C(=O)O)CCNC2
d: CCCCCNC(=O)C(Cc1ccc(N(C(=O)C(=O)O)c2ccccc2C(=O)O)c(/C=C/C(N)=O)c1)NS(C)(=O)=O (stereo unspecified)
e: COC(=O)c1c(O)cccc1OCCCCNC(=O)C(Cc1ccc(OC(C(N)=O)C(=O)O)cc1)NC(=O)OC(C)(C)C (stereo unspecified)
Query :: Given 5 compounds, produce a descending ranking by pKi. List each label, following the requested order.
Result :: d, c, b, a, e
